# Test system: MOLM-13 cells
# ASSAY OVERVIEW: Cell viability assay (CellTiter-Glo) in MOLM-13 cells, alone or with gilteritinib
# Type: cell-based
# CONDITIONS: Homo sapiens, MOLM-13, 72 h, MOLM-13 cells, with gilteritinib 20 nM, three days, CellTiter-Glo; read-out: MOLM-13 IC50 gilteritinib
Can you tell me IC50 for the items I'm about to list?

Use these answered entries as a reference point.
O=C1CCC(N2C(=O)c3ccc(NC[C@H]4C[C@H](n5cc(-c6cc(F)ccn6)c(C6CC6)n5)C4)cc3C2=O)C(=O)N1 (some centres unmarked) = 100 to 1000 nM
O=C1CCC(N2C(=O)c3ccc(NC[C@H]4C[C@@H](n5cc(-c6cnc7ccc(N8CCNCC8)cc7n6)cn5)C4)cc3C2=O)C(=O)N1 (some centres unmarked) = 100 to 1000 nM
O=C1CCC(N2C(=O)c3ccc(NCCCCCCn4cc(-c5cnc6ccccc6n5)cn4)cc3C2=O)C(=O)N1 (centres unmarked) = 10 to 100 nM
O=C1CCC(N2C(=O)c3ccc(NCC4CC(n5cc(-c6cnc7cccc(N8CCOCC8)c7n6)cn5)C4)cc3C2=O)C(=O)N1 (centres unmarked) = > 1000 nM
O=C1CCC(N2Cc3cc(CCCCCCn4cc(-c5cnc6ccccc6n5)cn4)ccc3C2=O)C(=O)N1 (centres unmarked) = 100 to 1000 nM

Batch request: IC50 for each of the following compounds.
1. O=C1CCC(N2C(=O)c3ccc(NC[C@H]4C[C@H](n5cc(-c6nccc7ccncc67)c(C6CC6)n5)C4)cc3C2=O)C(=O)N1 (some centres unmarked)
2. O=C1CCC(N2Cc3ccc(CCCCCCC(=O)N4CCC(c5ccccn5)CC4)cc3C2=O)C(=O)N1 (centres unmarked)
3. Cc1nc(-c2cn([C@H]3C[C@H](CNc4ccc5c(c4)C(=O)N(C4CCC(=O)NC4=O)C5=O)C3)nc2C2CC2)ccc1F (some centres unmarked)
4. O=C1CCC(N2C(=O)c3ccc(NCCCC4CCCC(n5cc(-c6cnc7ccccc7n6)cn5)C4)cc3C2=O)C(=O)N1 (centres unmarked)

A:
1: < 10 nM; 2: 100 to 1000 nM; 3: < 10 nM; 4: 100 to 1000 nM

Batch request: IC50 for each of the following compounds.
1. O=C1CCC(N2C(=O)c3ccc(CCCCCCCn4cc(-c5cnc6ccccc6n5)cn4)cc3C2=O)C(=O)N1 (centres unmarked)
2. CN(c1ccccn1)C1CCN(CC(=O)NCCNc2ccc3c(c2)C(=O)N(C2CCC(=O)NC2=O)C3=O)CC1 (centres unmarked)
3. Cc1nn(CCCCCCNc2ccc3c(c2)C(=O)N(C2CCC(=O)NC2=O)C3=O)c(C)c1-c1cnccn1 (centres unmarked)
4. O=C1CCC(N2C(=O)c3ccc(CNCCCn4cc(-c5cnc6ccccc6n5)c(C5CC5)n4)cc3C2=O)C(=O)N1 (centres unmarked)
5. O=C1CCC(N2Cc3ccc(NCCCCCCn4cc(-c5cnc6ccccc6n5)cn4)cc3C2=O)C(=O)N1 (centres unmarked)

A:
1. 100 to 1000 nM
2. 100 to 1000 nM
3. 10 to 100 nM
4. > 1000 nM
5. > 1000 nM

----------
Can you tell me IC50 for the items I'm about to list?
# Tested on: MOLM-13 cells
# ASSAY OVERVIEW: Cell viability assay (CellTiter-Glo) in MOLM-13 cells, alone or with gilteritinib
# Assay type: cell-based
# CONDITIONS: Homo sapiens, MOLM-13, 72 h, MOLM-13 cells, with gilteritinib 20 nM, three days, CellTiter-Glo; read-out: MOLM-13 IC50 gilteritinib

Use these answered entries as a reference point.
CN1CC(Nc2cccc(-c3cn([C@H]4C[C@H](CNc5ccc6c(c5)C(=O)N(C5CCC(=O)NC5=O)C6=O)C4)nc3C3CC3)n2)C1 (stereo partly drawn) [GS-292] = > 1000 nM
O=C1CCC(N2C(=O)c3ccc(NCCC[C@H]4C[C@H](n5cc(-c6cnc7ccc(N8CCOCC8)cc7n6)cn5)C4)cc3C2=O)C(=O)N1 (stereo partly drawn) [GS-188] = < 10 nM
N#Cc1cccc2nc(-c3cnn([C@H]4C[C@H](CCCNc5ccc6c(c5)C(=O)N(C5CCC(=O)NC5=O)C6=O)C4)c3)cnc12 (stereo partly drawn) [GS-233] = 10 to 100 nM
CN1C[C@H]2C[C@@H]1CN2c1ccc2ncc(-c3cnn(C4CC(CCCNc5ccc6c(c5)C(=O)N(C5CCC(=O)NC5=O)C6=O)C4)c3)nc2c1 (stereo partly drawn) [GS-395] = 10 to 100 nM
O=C1CCC(N2C(=O)c3ccc(NC[C@H]4C[C@H](n5cc(-c6cc7cn[nH]c7cn6)c(C6CC6)n5)C4)cc3C2=O)C(=O)N1 (stereo partly drawn) [GS-293] = 100 to 1000 nM

Turning to the following compound.
Q: Fill: IC50 (MOLM-13 cells) for this compound O=C1CCC(N2C(=O)c3ccc(NC[C@H]4C[C@H](n5cc(-c6cccc(N7CCC7)n6)c(C6CC6)n5)C4)cc3C2=O)C(=O)N1 (stereo partly drawn) [GS-257]
A: < 10 nM

----------
Can you tell me IC50 for the items I'm about to list?
# Tested on: MOLM-13 cells
# ASSAY OVERVIEW: Cell viability assay (CellTiter-Glo) in MOLM-13 cells, alone or with gilteritinib
# Type: cell-based
# CONDITIONS: Homo sapiens, MOLM-13, 72 h, MOLM-13 cells, with gilteritinib 20 nM, three days, CellTiter-Glo; read-out: MOLM-13 IC50 gilteritinib

Use these answered entries as a reference point.
COc1ccnc(-c2cnn([C@H]3C[C@H](CCCNc4ccc5c(c4)C(=O)N(C4CCC(=O)NC4=O)C5=O)C3)c2)c1 (some centres unmarked) = 10 to 100 nM
Cc1ccnc(-c2cn([C@H]3C[C@H](CNc4ccc5c(c4)C(=O)N(C4CCC(=O)NC4=O)C5=O)C3)nc2C2CC2)c1 (some centres unmarked) = < 10 nM
CN1CCC(c2ccc3ncc(-c4cnn([C@H]5C[C@H](CCCNc6ccc7c(c6)C(=O)N(C6CCC(=O)NC6=O)C7=O)C5)c4)nc3c2)CC1 (some centres unmarked) = < 10 nM
O=C1CCC(N2C(=O)c3ccc(NC[C@H]4C[C@H](n5cc(-c6cc(NC7CCNCC7)ccn6)c(C6CC6)n5)C4)cc3C2=O)C(=O)N1 (some centres unmarked) = > 1000 nM

Turning to the following compound.
Q: // fetch IC50 given entry O=C1CCC(N2C(=O)c3ccc(NC[C@H]4C[C@H](n5cc(-c6nccc7[nH]ncc67)c(C6CC6)n5)C4)cc3C2=O)C(=O)N1 (some centres unmarked)
A: < 10 nM

----------
# Test system: MOLM-13 cells
# ASSAY OVERVIEW: Cell viability assay (CellTiter-Glo) in MOLM-13 cells, alone or with gilteritinib
# Assay type: cell-based
# CONDITIONS: Homo sapiens, MOLM-13, 72 h, MOLM-13 cells, compound alone (without gilteritinib), three days, CellTiter-Glo; read-out: MOLM-13 IC50
METRIC: IC50

Use these answered entries as a reference point.
O=C1CCC(N2Cc3c(Nc4ccnc(Nc5cccc(CN6CCC(n7cc(-c8cnc9cccc(Br)c9n8)cn7)CC6)c5)n4)cccc3C2=O)C(=O)N1 (centres unmarked) [GS-028] = 0.1 to 1 µM
O=C1CCC(N2C(=O)c3ccc(NC[C@H]4C[C@H](n5cc(-c6cccc(=O)[nH]6)c(C6CC6)n5)C4)cc3C2=O)C(=O)N1 (some centres unmarked) [GS-270] = > 1 µM
Cc1nn([C@H]2C[C@@H](CCCNc3ccc4c(c3)C(=O)N(C3CCC(=O)NC3=O)C4=O)C2)cc1-c1cnc2ccccc2n1 (some centres unmarked) [GS-168] = > 1 µM
O=C1CCC(N2C(=O)c3ccc(NCCC[C@H]4C[C@H](n5cc(-c6cnc7ccc(NC8COC8)cc7n6)cn5)C4)cc3C2=O)C(=O)N1 (some centres unmarked) [GS-585] = 0.01 to 0.1 µM
Cn1ccc2c(-c3cn([C@H]4C[C@H](CNc5ccc6c(c5)C(=O)N(C5CCC(=O)NC5=O)C6=O)C4)nc3C3CC3)nccc21 (some centres unmarked) [GS-615] = 0.01 to 0.1 µM
O=C1CCC(N2C(=O)c3ccc(NC[C@H]4C[C@H](n5cc(-c6ccc(N7CCNCC7)cn6)c(C6CC6)n5)C4)cc3C2=O)C(=O)N1 (some centres unmarked) [GS-297] = > 1 µM
O=C1CCC(N2C(=O)c3ccc(NC[C@H]4C[C@H](n5cc(-c6ccccc6F)c(C6CC6)n5)C4)cc3C2=O)C(=O)N1 (some centres unmarked) [GS-289] = 0.1 to 1 µM

Turning to the following compound.
Q: // fetch IC50 given entry Cc1nn([C@H]2C[C@H](CNc3ccc4c(c3)C(=O)N(C3CCC(=O)NC3=O)C4=O)C2)cc1-c1cnc2ccccc2n1 (some centres unmarked) [GS-200]
A: 0.1 to 1 µM
